B1: HDV Ribozyme (parent)
chain: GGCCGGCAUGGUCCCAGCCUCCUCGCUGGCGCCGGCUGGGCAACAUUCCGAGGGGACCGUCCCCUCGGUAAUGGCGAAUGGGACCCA

Variants of: B1
Assay: self-cleavage, relative activity (ratio to wild type); higher = more cleavage; co-transcriptional
self-cleavage vs 0.3: at or above is Met, below is Not met.

[
  {
    "Variant Designation": "C30G U79A",
    "Classification": "Not met"
  },
  {
    "Variant Designation": "C49G U60A",
    "Classification": "Met"
  },
  {
    "Variant Designation": "G5U G81U",
    "Classification": "Not met"
  },
  {
    "Variant Designation": "G1A U46C",
    "Classification": "Not met"
  },
  {
    "Variant Designation": "C18G G55A",
    "Classification": "Not met"
  },
  {
    "Variant Designation": "C66U A87C",
    "Classification": "Met"
  },
  {
    "Variant Designation": "U9C A78C",
    "Classification": "Not met"
  },
  {
    "Variant Designation": "U37G C85G",
    "Classification": "Not met"
  },
  {
    "Variant Designation": "C14A C48G",
    "Classification": "Met"
  },
  {
    "Variant Designation": "C49G G54A",
    "Classification": "Met"
  },
  {
    "Variant Designation": "C15U G52C",
    "Classification": "Met"
  },
  {
    "Variant Designation": "G5C G74U",
    "Classification": "Not met"
  },
  {
    "Variant Designation": "C13U U69C",
    "Classification": "Met"
  },
  {
    "Variant Designation": "U47A C62U",
    "Classification": "Met"
  },
  {
    "Variant Designation": "G40U A83G",
    "Classification": "Met"
  },
  {
    "Variant Designation": "G52A G54C",
    "Classification": "Met"
  },
  {
    "Variant Designation": "C32U G67C",
    "Classification": "Met"
  },
  {
    "Variant Designation": "C26G U65C",
    "Classification": "Met"
  },
  {
    "Variant Designation": "U9A C49A",
    "Classification": "Met"
  },
  {
    "Variant Designation": "A56C G81A",
    "Classification": "Met"
  },
  {
    "Variant Designation": "G54C C61G",
    "Classification": "Met"
  },
  {
    "Variant Designation": "C32U C44U",
    "Classification": "Met"
  },
  {
    "Variant Designation": "C26G G55C",
    "Classification": "Met"
  },
  {
    "Variant Designation": "C44U A56G",
    "Classification": "Met"
  },
  {
    "Variant Designation": "G53A U79A",
    "Classification": "Met"
  },
  {
    "Variant Designation": "G59A G67U",
    "Classification": "Met"
  },
  {
    "Variant Designation": "C15U A83U",
    "Classification": "Not met"
  },
  {
    "Variant Designation": "C24U G39C",
    "Classification": "Not met"
  },
  {
    "Variant Designation": "U37A A83C",
    "Classification": "Not met"
  },
  {
    "Variant Designation": "C14A A45C",
    "Classification": "Not met"
  },
  {
    "Variant Designation": "C18U A51G",
    "Classification": "Met"
  },
  {
    "Variant Designation": "G29U G38A",
    "Classification": "Not met"
  },
  {
    "Variant Designation": "C44U C58G",
    "Classification": "Met"
  },
  {
    "Variant Designation": "U9C C19A",
    "Classification": "Not met"
  },
  {
    "Variant Designation": "C26U G68C",
    "Classification": "Met"
  },
  {
    "Variant Designation": "C49A G55U",
    "Classification": "Met"
  },
  {
    "Variant Designation": "G10C A77G",
    "Classification": "Met"
  },
  {
    "Variant Designation": "U9C C85A",
    "Classification": "Met"
  },
  {
    "Variant Designation": "G34U A56G",
    "Classification": "Not met"
  },
  {
    "Variant Designation": "G5A U60G",
    "Classification": "Not met"
  },
  {
    "Variant Designation": "G52C G68A",
    "Classification": "Met"
  },
  {
    "Variant Designation": "C32U C86G",
    "Classification": "Met"
  },
  {
    "Variant Designation": "G53A G82A",
    "Classification": "Met"
  },
  {
    "Variant Designation": "G28C G50A",
    "Classification": "Not met"
  },
  {
    "Variant Designation": "A77U A83C",
    "Classification": "Not met"
  },
  {
    "Variant Designation": "C48U U65A",
    "Classification": "Met"
  },
  {
    "Variant Designation": "C30A G52U",
    "Classification": "Met"
  },
  {
    "Variant Designation": "C36A A83G",
    "Classification": "Not met"
  },
  {
    "Variant Designation": "U20G G53U",
    "Classification": "Not met"
  },
  {
    "Variant Designation": "C41A C66G",
    "Classification": "Met"
  },
  {
    "Variant Designation": "G6C C18U",
    "Classification": "Not met"
  },
  {
    "Variant Designation": "G6A U23A",
    "Classification": "Met"
  },
  {
    "Variant Designation": "A43U U47G",
    "Classification": "Met"
  },
  {
    "Variant Designation": "G28A G82A",
    "Classification": "Not met"
  },
  {
    "Variant Designation": "C58G A77G",
    "Classification": "Met"
  },
  {
    "Variant Designation": "G2C C3A",
    "Classification": "Not met"
  },
  {
    "Variant Designation": "C24A G82A",
    "Classification": "Not met"
  },
  {
    "Variant Designation": "C41A C49G",
    "Classification": "Met"
  },
  {
    "Variant Designation": "U23G C44G",
    "Classification": "Not met"
  },
  {
    "Variant Designation": "C3U C66A",
    "Classification": "Met"
  },
  {
    "Variant Designation": "A8G A87G",
    "Classification": "Met"
  },
  {
    "Variant Designation": "G5C C30U",
    "Classification": "Not met"
  },
  {
    "Variant Designation": "G25A G68C",
    "Classification": "Not met"
  }
]

Entry source: the RNAGym collection of RNA variant scans (doi:10.7554/elife.80360)
